- target_of_assay: T1, biotin-labeled human PD-1 Fc protein (human, biotin-labeled (site not stated))
- T1 construct: also called PD-1-Fc-biotin
- test: capture ELISA, antibody captured on plate, biotin-labeled human PD-1 Fc in solution
measured_attribute: EC50 (ng/mL)
Only the number, expressed in ng/mL, is required.

1) huD2H3-V10 (antibody, human IgG1, kappa, V domains shown, Humanized D2H3, human IgG1/kappa) VH: EVQLVQSGAEVKKPGSSVKVSCKSSGYTFTNYWMHWVRQAPGQGLEWIGAIFPRNSETNYNQKFKARATLTADTSTSTAYMELSSLRSEDTAVYFCTRNRYGLDYWGQGTLVTVSS VL: DIVLTQSPDSLAVSLGERATINCRASESVSLHGTRLMHWYQQKPGQPPKLLISLGSNLESGVPDRFSGSGSGTDFTLTISSLQAEDVAVYFCQQSIEDPWTFGQGTKLEIKR : 0.505

Q. Respond only with EC50 recorded for huD2H3-V11 (antibody, human IgG1, kappa, V domains shown, Humanized D2H3, human IgG1/kappa) VH: EVQLVQSGAEVKKPGSSVKVSCKSSGYTFTNYWMHWVRQAPGQGLEWIGAIFPRNSETNYNQKFKARATLTADTSTSTAYMELSSLRSEDTAVYFCTRNRYGLDYWGQGTLVTVSS VL: DIVLTQSPDSLAVSLGERATINCRASESVSLHGTRLMHWYQQKPGQPPKLLISLGSNLESGVPDRFSGSGSETDFTLTISSLQAEDVAVYYCQQSIEDPWTFGQGTKLEIKR
A. 0.17
